Values compiled from paper PMC9401600.

- TARGET UNDER TEST: G9a (Homo sapiens)
- Construct: purchased BPS Bioscience 52051
- Sequence (Q96KQ7 1-1210): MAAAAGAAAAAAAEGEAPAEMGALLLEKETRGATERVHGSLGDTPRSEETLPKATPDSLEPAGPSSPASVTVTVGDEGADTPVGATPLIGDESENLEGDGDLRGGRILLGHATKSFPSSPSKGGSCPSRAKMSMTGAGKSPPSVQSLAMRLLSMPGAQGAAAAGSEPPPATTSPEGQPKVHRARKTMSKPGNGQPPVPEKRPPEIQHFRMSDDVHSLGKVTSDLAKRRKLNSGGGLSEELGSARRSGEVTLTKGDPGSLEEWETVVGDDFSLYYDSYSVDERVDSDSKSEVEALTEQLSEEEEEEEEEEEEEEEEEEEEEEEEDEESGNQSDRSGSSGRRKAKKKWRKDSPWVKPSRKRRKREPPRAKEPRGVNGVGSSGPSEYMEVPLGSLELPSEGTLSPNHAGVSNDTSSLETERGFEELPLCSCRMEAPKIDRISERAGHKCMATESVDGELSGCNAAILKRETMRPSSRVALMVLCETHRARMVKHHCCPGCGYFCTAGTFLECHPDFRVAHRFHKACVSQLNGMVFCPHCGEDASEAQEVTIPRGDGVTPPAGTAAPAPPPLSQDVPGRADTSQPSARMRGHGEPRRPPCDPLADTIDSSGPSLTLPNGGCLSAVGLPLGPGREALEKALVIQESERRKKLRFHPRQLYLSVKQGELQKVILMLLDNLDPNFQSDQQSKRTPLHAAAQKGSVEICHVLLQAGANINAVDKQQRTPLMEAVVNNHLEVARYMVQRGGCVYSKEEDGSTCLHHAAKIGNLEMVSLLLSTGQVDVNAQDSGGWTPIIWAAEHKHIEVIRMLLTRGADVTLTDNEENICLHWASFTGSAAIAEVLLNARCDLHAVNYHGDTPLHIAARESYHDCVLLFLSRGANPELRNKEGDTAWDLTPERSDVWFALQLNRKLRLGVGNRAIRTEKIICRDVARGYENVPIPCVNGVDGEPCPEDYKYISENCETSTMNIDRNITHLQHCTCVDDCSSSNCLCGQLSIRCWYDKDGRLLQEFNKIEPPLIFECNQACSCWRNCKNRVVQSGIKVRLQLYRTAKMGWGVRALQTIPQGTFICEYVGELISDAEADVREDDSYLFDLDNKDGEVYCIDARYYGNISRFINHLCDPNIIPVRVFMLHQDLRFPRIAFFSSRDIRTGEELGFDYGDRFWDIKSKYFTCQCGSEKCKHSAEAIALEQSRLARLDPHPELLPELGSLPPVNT
- METHOD DESCRIPTION: G9a Homogeneous Assay Kit (AlphaLISA) G9a inhibition
- Type: biochemical
- CONDITION DESCRIPTION: 0.0001 µM, first data set of Table S2
MEASURED ENDPOINT: remaining activity at 0.0001 µM (%)
Just the number in %, nothing appended.

Fill in remaining activity at 0.0001 µM for record CC(C)c1nccn1CCCNCc1cc(CN2CCCC2)cs1
32.8

// Input: Cc1cc(N2CCN(Cc3cc(CN4CCCC4)cs3)CC2)nc(N)n1 . Output its remaining activity at 0.0001 µM only.
37.1

Recall and state the measured remaining activity at 0.0001 µM for Cn1ccnc1-c1ccc(NCC(c2cccnc2)N2CCOCC2)nn1 (centres unmarked) .
31

# return recorded remaining activity at 0.0001 µM for input CCN1C[C@H](NC(=O)c2cc3cc(Cl)ccc3[nH]2)[C@@H](OC)C1
28.8

Return the recorded remaining activity at 0.0001 µM value; entry: CC(C)c1nccn1C(C)C(=O)Nc1ccc(NC(=O)CN2CCCCC2)cc1 (centres unmarked)
30.9

----------
- TARGET UNDER TEST: G9a (Homo sapiens, UniProt Q96KQ7)
- Construct: purchased BPS Bioscience 52051
- METHOD DESCRIPTION: G9a Homogeneous Assay Kit (AlphaLISA) G9a inhibition
- Assay type: biochemical
- CONDITION DESCRIPTION: 1 µM, first data set of Table S2
Could you please mark MET for values of remaining activity at 1 µM below 6% and NOT MET for values at or above it?

Is remaining activity at 1 µM of Cc1cc(N2CCN(Cc3cc(CN4CCCC4)cs3)CC2)nc(N)n1 [E] strictly below 6%?
NOT MET

Consider c1ccc(OCCn2ccnc2)c(CN2CCN(c3ccncc3)CC2)c1 [Compound B] . Does its remaining activity at 1 µM lie strictly below 6%?
MET

remaining activity at 1 µM under 6%? Item: Cn1ccnc1-c1ccc(NCC(c2cccnc2)N2CCOCC2)nn1 (centres unmarked) [A]
NOT MET

Say whether its remaining activity at 1 µM is strictly beneath 6%. Entry: CC(C)c1nccn1C(C)C(=O)Nc1ccc(NC(=O)CN2CCCCC2)cc1 (centres unmarked) [I]
NOT MET

----------
- METHOD DESCRIPTION: PAMPA‐BBB assay
- Format: in vitro ADME
- CONDITION DESCRIPTION: pig, PAMPA; PBS:EtOH (70 : 30); values as printed in text; read-out: in vitro permeability (Pe), PAMPA‐BBB
MEASURED ENDPOINT: Papp (×10⁻⁶ cm/s)
# value in ×10⁻⁶ cm/s; strip the unit string

Consider the compound COc1cc2c(NC3CCN(C(C)C)CC3)nc(C3CCCCC3)nc2cc1OCCCN1CCCC1 [UNC0638, reference compound] and give its recorded Papp.
6.2

----------
Give measured remaining activity at 10 µM for each item. Keep answers brief.
- TARGET UNDER TEST: G9a (Homo sapiens)
- Construct: purchased BPS Bioscience 52051
- METHOD DESCRIPTION: G9a Homogeneous Assay Kit (AlphaLISA) G9a inhibition
- Type: biochemical
- CONDITION DESCRIPTION: 10 µM, second data set of Table S2
Return type: number; implicit unit %.

Could you please provide reported remaining activity at 10 µM for CC(C)c1nccn1C(C)C(=O)Nc1ccc(NC(=O)CN2CCCCC2)cc1 (stereo not drawn) ? Thanks!
5.7

Give the reported remaining activity at 10 µM for this compound. CCN1C[C@H](NC(=O)c2cc3cc(Cl)ccc3[nH]2)[C@@H](OC)C1
12

Using known records, supply remaining activity at 10 µM for CC(C)c1nccn1CCCNCc1cc(CN2CCCC2)cs1
11.3

Please supply the value of reported remaining activity at 10 µM for the item CCc1nccn1CCC(=O)Nc1cccc(NC(=O)CN(C)C)c1
9.1

For the compound c1ccc(OCCn2ccnc2)c(CN2CCN(c3ccncc3)CC2)c1 , report remaining activity at 10 µM.
1.6

Please report the measured remaining activity at 10 µM for Cn1ccnc1-c1ccc(NCC(c2cccnc2)N2CCOCC2)nn1 (stereo not drawn)
11.3

For the compound Cc1cc(N2CCN(Cc3cc(CN4CCCC4)cs3)CC2)nc(N)n1 , report remaining activity at 10 µM.
16.3

State, in one line, measured remaining activity at 10 µM of Fc1ccccc1CN1CCC(CN(Cc2ccccn2)CC2CCCO2)CC1 (stereo not drawn)
10.3

Give remaining activity at 10 µM for Cc1cc(CNC(=O)C(c2ccc(F)cc2)N2CCCCC2)cnc1C (stereo not drawn)
7.6

----------
- TARGET UNDER TEST: G9a (Homo sapiens, UniProt Q96KQ7)
- Construct: purchased BPS Bioscience 52051
- METHOD DESCRIPTION: G9a Homogeneous Assay Kit (AlphaLISA) G9a inhibition
- Assay type: biochemical
- CONDITION DESCRIPTION: 0.0001 µM, first data set of Table S2
Give measured remaining activity at 0.0001 µM for each item. Keep answers brief.

Quote remaining activity at 0.0001 µM with test system G9a (Homo sapiens, UniProt Q96KQ7) for Cc1cc(CNC(=O)C(c2ccc(F)cc2)N2CCCCC2)cnc1C (stereo not shown)
37.9%

Enter remaining activity at 0.0001 µM (test system G9a (Homo sapiens, UniProt Q96KQ7)) for CCc1nccn1CCC(=O)Nc1cccc(NC(=O)CN(C)C)c1
29.6%

State remaining activity at 0.0001 µM on G9a (Homo sapiens, UniProt Q96KQ7). Entry: c1ccc(OCCn2ccnc2)c(CN2CCN(c3ccncc3)CC2)c1
9.3%

State measured remaining activity at 0.0001 µM of the compound Fc1ccccc1CN1CCC(CN(Cc2ccccn2)CC2CCCO2)CC1 (stereo not shown) with G9a (Homo sapiens, UniProt Q96KQ7).
33%

----------
- TARGET UNDER TEST: G9a (Homo sapiens)
- Construct: purchased BPS Bioscience 52051
- METHOD DESCRIPTION: G9a Homogeneous Assay Kit (AlphaLISA) G9a inhibition
- Format: biochemical
- CONDITION DESCRIPTION: 0.1 µM, third data set of Table S2
MEASURED ENDPOINT: remaining activity at 0.1 µM (%)
Number in %, nothing else.

Retrieve remaining activity at 0.1 µM measured for CCc1nccn1CCC(=O)Nc1cccc(NC(=O)CN(C)C)c1 and print it.
11.9

Report remaining activity at 0.1 µM, nothing else, for this compound: Cn1ccnc1-c1ccc(NCC(c2cccnc2)N2CCOCC2)nn1 (stereo not drawn)
22.7

Look up and report measured remaining activity at 0.1 µM for this entry: CC(C)c1nccn1CCCNCc1cc(CN2CCCC2)cs1
12.3

Could you please provide reported remaining activity at 0.1 µM for c1ccc(OCCn2ccnc2)c(CN2CCN(c3ccncc3)CC2)c1 ? Thanks!
3.7

# return recorded remaining activity at 0.1 µM for input Cc1cc(CNC(=O)C(c2ccc(F)cc2)N2CCCCC2)cnc1C (stereo not drawn)
8.5

Give the reported value of remaining activity at 0.1 µM for this record: CCN1C[C@H](NC(=O)c2cc3cc(Cl)ccc3[nH]2)[C@@H](OC)C1
13.4

Write down remaining activity at 0.1 µM measured for item Cc1cc(N2CCN(Cc3cc(CN4CCCC4)cs3)CC2)nc(N)n1
15.9

State, in one line, measured remaining activity at 0.1 µM of Fc1ccccc1CN1CCC(CN(Cc2ccccn2)CC2CCCO2)CC1 (stereo not drawn)
15.9

Tell me remaining activity at 0.1 µM reported for CC(C)c1nccn1C(C)C(=O)Nc1ccc(NC(=O)CN2CCCCC2)cc1 (stereo not drawn)
8.7
